FYI, the data here is from PubChem BioAssay (NCI).

# Tested on: SNB-75 CNS
# Assay protocol: NCI tumour cell line growth inhibition, 48 h
Parameter measured: GI50

- O=C1N[C@@H]2[C@@H](O)[C@@H](O)[C@H](O)C[C@H]2c2cc3c(c(O)c21)OCO3: 89.8 nM
- COc1ccc2nc3ccccc3c(NCc3ccc(Cl)cc3)c2c1: 1270 nM
- C=C1C(=O)O[C@H]2[C@H]1CC/C(COC(=O)CCCC(=O)OC/C1=C/CC[C@@]3(C)O[C@H]3[C@H]3OC(=O)C(=C)[C@@H]3CC1)=C\CC[C@@]1(C)O[C@@H]21: 2840 nM

----------
# Test system: SF-539 CNS
# Assay protocol: NCI tumour cell line growth inhibition, 48 h; in the data active = GI50 below about 0.43 µM; inactive = the rest
Possible outcomes: Y (active), N (inactive)

* COc1cc(-c2csc(NC(=O)Nc3ccc(Cl)c(C(F)(F)F)c3)n2)cc(OC)c1OC | N
* O=Cc1cn(Cc2ccc(Cl)cc2)c2ccccc12 | N
* CC1(C)CC[C@]2(C(N)=O)CC[C@]3(C)C(=CC[C@@H]4[C@@]5(C)C/C(=C/c6cccnc6)C(=O)C(C)(C)[C@@H]5CC[C@]43C)[C@@H]2C1 | N
* CC(O)CCc1ccc(Oc2c3ccccc3nc3occc23)cc1 (stereo not drawn) | N
* Cc1cc(Oc2ccccc2)ccc1Nc1ncnc2ccc(-c3cnc(Cl)c(NS(C)(=O)=O)c3)cc12 | N
* CC(C)=CC(=O)OC1C(CO)OC(Oc2cc(O)c3c(=O)cc(-c4ccc(O)c(O)c4)oc3c2)C(OC2OC(C)C(O)C(O)C2O)C1O (stereo not drawn) | N
* Cc1cc(Nc2ccc3c(c2)OCO3)c2cc3c(cc2n1)OCO3 | N
* CC(=O)OC1Oc2ccccc2-c2oc(=O)c(-c3ccc(F)cc3)cc21 (stereo not drawn) | N
* C(=C1c2ccccc2-c2ccccc21)c1ccncc1 | N
* COc1ccc2c(c1)[n+]([O-])c(C#N)c(NC(=O)c1cccs1)[n+]2[O-] | N
* O=c1ccc2nc(C(F)(F)F)nn(-c3ccccc3)c-2c1 | N
* COc1ccc2nc3cccc([N+](=O)[O-])c3c(NCCNCCO)c2c1 | Y
* C[C@]12CCC(=O)CC1CC[C@@H]1C2CC[C@@]2(C)C1CC[C@@H]2OC(=O)CC[Se][Se]CCC(=O)O[C@H]1CCC2[C@@H]3CCC4CC(=O)CC[C@]4(C)C3CC[C@@]21C (stereo partly drawn) | N

----------
# System: NCI-H460 lung
# Assay protocol: NCI tumour cell line growth inhibition, 48 h; in the data active = GI50 below about 0.43 µM; inactive = the rest
Outcome codes: yes (1) for active, no (0) for inactive

• Cc1cc(C2CC(O)C(CO)O2)c(Cl)cc1Cl (stereo not given) = no (0)
• C[n+]1c2ccccc2c(Nc2ccc(N3CCCCC3)cc2)c2[nH]c3ccccc3c21 = yes (1)
• CC(=N\O)/C(C)=N/O.CC(=N\O)/C(C)=N/O.CC(=N\O)/C(C)=N/O.CC(=N\O)/C(C)=N/O.[CH3-].[CH3-].[Co].[Co] = no (0)
• CN(C)CCCNCc1ccc(-c2ccc(F)c(Cl)c2)o1 = no (0)
• N#CC1=C(N)Oc2c(ccc3ccccc23)C1c1cccs1 (stereo not given) = yes (1)
• C[CH2][Pb]([CH2]C)([CH2]C)[O]C(=O)COc1ccccc1 = no (0)
• COc1cc(-c2csc(NC(=O)Nc3ccc(Cl)c(C(F)(F)F)c3)n2)cc(OC)c1OC = no (0)
• O=C(CCCCN1CCOCC1)Nc1ccc(Cn2nnc3c2C(=O)c2nnn(Cc4ccc(NC(=O)CCCCN5CCOCC5)cc4)c2C3=O)cc1 = yes (1)
• ClCCn1cnc2c(SCc3ccccc3Cl)ncnc21 = yes (1)
• [Cl-].[Nd+3].[O-]/N=C(\c1ccccc1)c1ccccn1.[O-]/N=C(\c1ccccc1)c1ccccn1.[O-]/N=C(\c1ccccc1)c1ccccn1 = no (0)
• COc1ccc2c(c1)NC(=O)CN2c1nc(NC2CC2)nc2ccccc12 = yes (1)
• CC1(C)CC[C@]2(C(N)=O)CC[C@]3(C)C(=CC[C@@H]4[C@@]5(C)C/C(=C/c6cccnc6)C(=O)C(C)(C)[C@@H]5CC[C@]43C)[C@@H]2C1 = no (0)
• CC(=O)N1CCC(Nc2cc(C(=O)NC[C@H](O)CN3CCc4ccccc4C3)ncn2)CC1 = no (0)
• CC(C)C[C@H](NC(=O)Cn1ccc(Nc2ccccc2)cc1=O)B(O)O = no (0)
• CN(C)CCCn1c2c(c3ccc(-c4ccn[nH]4)cc3c1=O)C(=O)c1ccccc1-2 = yes (1)
